- ASSAY TARGET: T1, IL10Rα and IL2Rγ on human primary cells (CD8 T cells, CD4 T cells, monocytes) (human) (UniProt Q13651)
- T1 sequence (looked up) 1: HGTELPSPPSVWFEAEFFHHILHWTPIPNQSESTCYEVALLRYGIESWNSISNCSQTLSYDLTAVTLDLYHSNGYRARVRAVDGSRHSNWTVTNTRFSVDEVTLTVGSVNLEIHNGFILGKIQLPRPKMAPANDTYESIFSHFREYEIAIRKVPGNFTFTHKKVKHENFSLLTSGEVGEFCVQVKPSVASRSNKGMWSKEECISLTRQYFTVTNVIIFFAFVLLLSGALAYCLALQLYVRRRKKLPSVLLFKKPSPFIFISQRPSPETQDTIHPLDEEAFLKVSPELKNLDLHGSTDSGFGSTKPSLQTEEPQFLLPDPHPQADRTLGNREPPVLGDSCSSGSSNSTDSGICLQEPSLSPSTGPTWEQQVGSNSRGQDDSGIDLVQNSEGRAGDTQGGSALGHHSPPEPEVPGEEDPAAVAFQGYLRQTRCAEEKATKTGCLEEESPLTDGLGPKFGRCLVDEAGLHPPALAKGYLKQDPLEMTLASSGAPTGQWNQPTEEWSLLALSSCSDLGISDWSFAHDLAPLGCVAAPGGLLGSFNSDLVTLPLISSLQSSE
- T1 sequence (looked up) 2: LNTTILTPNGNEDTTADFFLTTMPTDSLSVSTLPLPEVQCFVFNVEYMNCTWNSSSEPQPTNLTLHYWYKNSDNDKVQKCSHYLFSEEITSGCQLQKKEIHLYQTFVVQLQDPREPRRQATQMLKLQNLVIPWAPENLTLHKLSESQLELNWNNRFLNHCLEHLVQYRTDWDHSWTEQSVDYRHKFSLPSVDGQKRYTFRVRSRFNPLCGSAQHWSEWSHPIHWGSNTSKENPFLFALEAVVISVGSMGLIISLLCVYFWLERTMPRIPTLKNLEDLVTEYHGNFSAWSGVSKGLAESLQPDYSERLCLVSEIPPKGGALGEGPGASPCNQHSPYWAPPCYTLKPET
- EXPERIMENT SUMMARY: cell-based or functional assay
// reported pSTAT3 (MFI) in monocytes at 100 µM for each item listed
Hi! Could you send only the number? It should be in MFI, unit omitted.

Completed entries (count: 5):
INSERT INTO assay_data (binder, measured) VALUES
  ('hIL10Ra_VHH14-hIL2Rg_VHH19, linker GS, tag his (bispecific antibody, not shown: small tags and cut ends) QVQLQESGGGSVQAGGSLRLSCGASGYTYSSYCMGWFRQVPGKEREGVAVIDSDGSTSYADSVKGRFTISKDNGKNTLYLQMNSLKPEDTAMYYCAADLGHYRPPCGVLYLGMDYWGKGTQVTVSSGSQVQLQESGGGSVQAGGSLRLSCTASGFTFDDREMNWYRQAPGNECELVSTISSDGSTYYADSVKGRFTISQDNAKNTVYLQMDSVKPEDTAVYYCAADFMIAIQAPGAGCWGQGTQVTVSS', 4930),
  ('hIL10Ra_VHH14-hIL2Rg_VHH19, no linker, tag his (bispecific antibody, not shown: small tags and cut ends) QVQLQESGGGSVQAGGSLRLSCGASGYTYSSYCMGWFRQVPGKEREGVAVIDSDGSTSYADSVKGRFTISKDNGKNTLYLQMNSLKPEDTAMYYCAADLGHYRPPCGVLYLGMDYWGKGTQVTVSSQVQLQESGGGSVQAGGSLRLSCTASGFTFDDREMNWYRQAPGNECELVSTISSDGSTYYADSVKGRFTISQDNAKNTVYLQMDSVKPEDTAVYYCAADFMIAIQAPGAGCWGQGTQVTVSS', 4140),
  ('hIL10Ra_VHH14-hIL2Rg_VHH19, linker GGGSGGGS, tag his (bispecific antibody, not shown: small tags and cut ends) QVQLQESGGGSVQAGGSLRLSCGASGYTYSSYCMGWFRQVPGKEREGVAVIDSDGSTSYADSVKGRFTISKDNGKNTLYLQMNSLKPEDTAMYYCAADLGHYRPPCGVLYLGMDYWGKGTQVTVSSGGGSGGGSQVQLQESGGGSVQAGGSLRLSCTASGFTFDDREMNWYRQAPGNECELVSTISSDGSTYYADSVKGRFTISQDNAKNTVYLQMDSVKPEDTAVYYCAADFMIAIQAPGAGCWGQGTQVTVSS', 4620),
  ('hIL10Ra_VHH14-hIL2Rg_VHH19, linker GGGS, tag his (bispecific antibody, not shown: small tags and cut ends) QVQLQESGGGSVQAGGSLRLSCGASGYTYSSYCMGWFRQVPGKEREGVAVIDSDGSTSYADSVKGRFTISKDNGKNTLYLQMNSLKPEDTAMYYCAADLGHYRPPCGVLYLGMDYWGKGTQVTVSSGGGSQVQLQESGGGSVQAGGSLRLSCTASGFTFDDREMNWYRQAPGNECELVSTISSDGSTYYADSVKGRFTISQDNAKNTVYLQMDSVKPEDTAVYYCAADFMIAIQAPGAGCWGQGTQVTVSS', 4880),
  ('hIL10Ra_VHH14-hIL2Rg_VHH19, linker …, tag his (bispecific antibody, not shown: small tags and cut ends) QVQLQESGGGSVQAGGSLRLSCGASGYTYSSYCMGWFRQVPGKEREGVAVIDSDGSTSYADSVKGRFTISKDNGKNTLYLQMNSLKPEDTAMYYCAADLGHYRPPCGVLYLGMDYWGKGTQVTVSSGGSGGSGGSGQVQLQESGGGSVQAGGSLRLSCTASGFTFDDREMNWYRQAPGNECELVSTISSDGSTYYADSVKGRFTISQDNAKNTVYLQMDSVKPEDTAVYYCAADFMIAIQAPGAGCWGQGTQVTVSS', 4860);

Look at this binder and give its reported pSTAT3 (MFI) in monocytes at 100 µM. hIL10Ra_VHH14-hIL2Rg_VHH19, linker GGSGGS, tag his (bispecific antibody, not shown: small tags and cut ends) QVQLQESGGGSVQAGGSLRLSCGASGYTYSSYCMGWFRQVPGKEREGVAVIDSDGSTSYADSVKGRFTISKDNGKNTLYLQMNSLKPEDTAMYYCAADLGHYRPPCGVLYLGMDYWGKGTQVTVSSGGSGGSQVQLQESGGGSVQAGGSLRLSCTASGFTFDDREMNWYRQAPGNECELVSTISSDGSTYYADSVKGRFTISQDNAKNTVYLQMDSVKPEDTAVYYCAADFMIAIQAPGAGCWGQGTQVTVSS 4730

These data points were gathered from patent US20250163162A1.
